Origin of measurements: patent US11034650B2

# Test system: Pasteurella multocida PM 10775 (080130003051, BRD field isolate)
# Assay remarks: MIC, broth-microdilution (CLSI VET01-A4), strain PM 10775
# Type: cell-based
# Study conditions: Pasteurella multocida strain PM 10775, broth-microdilution; unit assumed

>  <Compound>
CC(C)(O)[C@H](NC(=O)c1ccc(C#Cc2ccc(CNC3CCCC3)cc2)cc1)C(=O)NO

>  <MIC PM 10775>
0.2 µg/mL

$$$$
>  <Compound>
CC(C)(O)[C@H](NC(=O)c1ccc(C#Cc2ccc(CNCC#N)s2)cc1)C(=O)NO

>  <MIC PM 10775>
0.2 µg/mL

$$$$
>  <Compound>
CC(C)(O)[C@H](NC(=O)c1ccc(C#Cc2ccc(CNCc3ccccn3)nc2)cc1)C(=O)NO

>  <MIC PM 10775>
0.4 µg/mL

$$$$
>  <Compound>
CSC(C)(C)[C@H](NC(=O)c1ccc(C#Cc2ccc(CNCc3ccco3)s2)cc1)C(=O)NO

>  <MIC PM 10775>
≤ 0.1 µg/mL

$$$$
>  <Compound>
O=C(N[C@@H](CO)C(=O)NO)c1ccc(C#Cc2ccc(CNCC3CCCO3)cc2)cc1 (stereo partly drawn)

>  <MIC PM 10775>
≤ 0.1 µg/mL

$$$$
>  <Compound>
COc1ccc(CNCc2ccc(C#Cc3ccc(C(=O)N[C@H](C(=O)NO)C(C)(C)S(C)(=O)=O)cc3)s2)cc1

>  <MIC PM 10775>
≤ 0.1 µg/mL

$$$$
>  <Compound>
CC(C)(O)[C@H](NC(=O)c1ccc(C#Cc2ccc(CN3CCOCC3)s2)cc1)C(=O)NO

>  <MIC PM 10775>
≤ 0.1 µg/mL

$$$$
>  <Compound>
O=C(N[C@@H](CO)C(=O)NO)c1ccc(C#Cc2ccc(CNCc3ccncc3)cc2)cc1

>  <MIC PM 10775>
≤ 0.1 µg/mL

$$$$
>  <Compound>
CC[C@H](C)[C@H](NC(=O)c1ccc(C#Cc2ccc(CNCc3ccnc(Cl)c3)cc2)cc1)C(=O)NO

>  <MIC PM 10775>
≤ 0.1 µg/mL

$$$$
>  <Compound>
O=C(N[C@@H](CO)C(=O)NO)c1ccc(C#Cc2ccc(CNCc3ccc(Cl)cc3)cc2)cc1

>  <MIC PM 10775>
≤ 0.1 µg/mL

$$$$
>  <Compound>
CC(C)([C@H](NC(=O)c1ccc(C#Cc2ccc(CNCc3nccs3)s2)cc1)C(=O)NO)S(C)(=O)=O

>  <MIC PM 10775>
≤ 0.1 µg/mL

$$$$
>  <Compound>
COc1ccc(CNCc2ccc(C#Cc3ccc(C(=O)N[C@@H](CO)C(=O)NO)cc3)cc2)cc1

>  <MIC PM 10775>
≤ 0.1 µg/mL

$$$$
>  <Compound>
CSC(C)(C)[C@H](NC(=O)c1ccc(C#Cc2ccc(CNCc3ccccn3)nc2)cc1)C(=O)NO

>  <MIC PM 10775>
0.4 µg/mL

$$$$
>  <Compound>
O=C(N[C@@H](CO)C(=O)NO)c1ccc(C#Cc2ccc(CN3CCc4ccccc4C3)cc2)cc1

>  <MIC PM 10775>
≤ 0.1 µg/mL

$$$$
>  <Compound>
CC1CN(Cc2ccc(C#Cc3ccc(C(=O)N[C@H](C(=O)NO)C(C)C)cc3)cc2)CC(C)O1 (stereo partly drawn)

>  <MIC PM 10775>
≤ 0.1 µg/mL

$$$$

====

# Test system: Pasteurella multocida PM 10775 (080130003051, BRD field isolate)
# Assay remarks: MIC, broth-microdilution (CLSI VET01-A4), strain PM 10775
# Type: cell-based
# Study conditions: Pasteurella multocida strain PM 10775, broth-microdilution; unit assumed

>  <Compound>
CC(C)(O)[C@H](NC(=O)c1ccc(C#Cc2ccc(CNCc3cccnc3)s2)cc1)C(=O)NO

>  <MIC PM 10775>
≤ 0.1 µg/mL

$$$$
>  <Compound>
CSC(C)(C)[C@H](NC(=O)c1ccc(C#Cc2ccc(CNCC#N)nc2)cc1)C(=O)NO

>  <MIC PM 10775>
0.2 µg/mL

$$$$
>  <Compound>
CC(C)(C(NC(=O)c1ccc(C#Cc2ccc(CNCc3ccc(Cl)cc3)cc2)cc1)C(=O)NO)[N+](=O)[O-] (stereo not drawn)

>  <MIC PM 10775>
≤ 0.1 µg/mL

$$$$
>  <Compound>
CC(=O)C(NC(=O)c1ccc(C#Cc2ccc(CNC3CCCC3)cc2)cc1)C(=O)NO (stereo not drawn)

>  <MIC PM 10775>
3.1 µg/mL

$$$$
>  <Compound>
CSC(C)(C)[C@H](NC(=O)c1ccc(C#Cc2ccc(CNCc3ccc(C)cc3)cc2)cc1)C(=O)NO

>  <MIC PM 10775>
0.4 µg/mL

$$$$
>  <Compound>
CC(C)([C@H](NC(=O)c1ccc(C#Cc2ccc(CNCc3cccnc3)nc2)cc1)C(=O)NO)S(C)(=O)=O

>  <MIC PM 10775>
≤ 0.1 µg/mL

$$$$
>  <Compound>
CC[C@H](C)[C@H](NC(=O)c1ccc(C#Cc2ccc(CNC)cc2)cc1)C(=O)NO

>  <MIC PM 10775>
≤ 0.1 µg/mL

$$$$
>  <Compound>
CSC(C)(C)[C@H](NC(=O)c1ccc(C#Cc2ccc(CNCc3cccnc3)nc2)cc1)C(=O)NO

>  <MIC PM 10775>
≤ 0.1 µg/mL

$$$$
>  <Compound>
CC(C)([C@H](NC(=O)c1ccc(C#Cc2ccc(CNCc3ccco3)s2)cc1)C(=O)NO)S(C)(=O)=O

>  <MIC PM 10775>
≤ 0.1 µg/mL

$$$$
>  <Compound>
CC(C)[C@H](NC(=O)c1ccc(C#Cc2ccc(CNCC(C)(C)C)cc2)cc1)C(=O)NO

>  <MIC PM 10775>
≤ 0.1 µg/mL

$$$$
>  <Compound>
Cc1cnc(CNCc2ccc(C#Cc3ccc(C(=O)N[C@H](C(=O)NO)C(C)(C)S(C)(=O)=O)cc3)cn2)o1

>  <MIC PM 10775>
≤ 0.1 µg/mL

$$$$
>  <Compound>
CC(C)(O)[C@H](NC(=O)c1ccc(C#Cc2ccc(CNCc3ccccc3)s2)cc1)C(=O)NO

>  <MIC PM 10775>
≤ 0.1 µg/mL

$$$$
>  <Compound>
CC(C)[C@H](NC(=O)c1ccc(C#Cc2ccc(CNCc3ccc(Cl)cc3)cc2)cc1)C(=O)NO

>  <MIC PM 10775>
≤ 0.1 µg/mL

$$$$
>  <Compound>
CC(C)[C@H](NC(=O)c1ccc(C#Cc2ccc(CN3CCN(c4ccccn4)CC3)cc2)cc1)C(=O)NO

>  <MIC PM 10775>
≤ 0.1 µg/mL

$$$$
>  <Compound>
CC[C@H](C)[C@H](NC(=O)c1ccc(C#Cc2ccc(CN3CCS(=O)(=O)CC3)cc2)cc1)C(=O)NO

>  <MIC PM 10775>
≤ 0.1 µg/mL

$$$$
>  <Compound>
CC(C)([C@H](NC(=O)c1ccc(C#Cc2ccc(CNC3CCCC3)cc2)cc1)C(=O)NO)S(C)(=O)=O

>  <MIC PM 10775>
≤ 0.1 µg/mL

$$$$
>  <Compound>
CC(C)([C@H](NC(=O)c1ccc(C#Cc2ccc(CNC3CC3)nc2)cc1)C(=O)NO)S(C)(=O)=O

>  <MIC PM 10775>
≤ 0.1 µg/mL

$$$$
>  <Compound>
O=C(N[C@@H](CO)C(=O)NO)c1ccc(C#Cc2ccc(CNCc3ccco3)cc2)cc1

>  <MIC PM 10775>
≤ 0.1 µg/mL

$$$$
>  <Compound>
CC(=O)C(NC(=O)c1ccc(C#Cc2ccc(CNCc3nccs3)cc2)cc1)C(=O)NO (stereo not drawn)

>  <MIC PM 10775>
0.4 µg/mL

$$$$
>  <Compound>
CC(C)(O)[C@H](NC(=O)c1ccc(C#Cc2ccc(CNCC(F)(F)F)nc2)cc1)C(=O)NO

>  <MIC PM 10775>
≤ 0.1 µg/mL

$$$$
>  <Compound>
CSC(C)(C)[C@H](NC(=O)c1ccc(C#Cc2ccc(CNCc3cccnc3)s2)cc1)C(=O)NO

>  <MIC PM 10775>
≤ 0.1 µg/mL

$$$$
>  <Compound>
CC[C@H](C)[C@H](NC(=O)c1ccc(C#Cc2ccc(CNC3CCCCC3)cc2)cc1)C(=O)NO

>  <MIC PM 10775>
≤ 0.1 µg/mL

$$$$
>  <Compound>
CSC(C)(C)C(NC(=O)c1ccc(C#Cc2ccc(CN3CCOCC3)nc2)cc1)C(=O)NO (stereo not drawn)

>  <MIC PM 10775>
≤ 0.1 µg/mL

$$$$
>  <Compound>
CSC(C)(C)[C@H](NC(=O)c1ccc(C#Cc2ccc(CNCc3ncccn3)s2)cc1)C(=O)NO

>  <MIC PM 10775>
≤ 0.1 µg/mL

$$$$
>  <Compound>
CC1CN(Cc2ccc(C#Cc3ccc(C(=O)N[C@@H](CO)C(=O)NO)cc3)cc2)CC(C)O1 (stereo partly drawn)

>  <MIC PM 10775>
≤ 0.1 µg/mL

$$$$
>  <Compound>
CON=C(C)[C@H](NC(=O)c1ccc(C#Cc2ccc(CNCc3nccs3)cc2)cc1)C(=O)NO

>  <MIC PM 10775>
0.2 µg/mL

$$$$
>  <Compound>
COc1ccc(CNCc2ccc(C#Cc3ccc(C(=O)N[C@H](C(=O)NO)C(C)(C)SC)cc3)s2)cc1

>  <MIC PM 10775>
≤ 0.1 µg/mL

$$$$
>  <Compound>
COc1ccc(CNCc2ccc(C#Cc3ccc(C(=O)N[C@H](C(=O)NO)C(C)(C)O)cc3)cn2)cc1

>  <MIC PM 10775>
≤ 0.1 µg/mL

$$$$
>  <Compound>
CSC(C)(C)[C@H](NC(=O)c1ccc(C#Cc2ccc(CNCC(F)(F)F)s2)cc1)C(=O)NO

>  <MIC PM 10775>
≤ 0.1 µg/mL

$$$$
>  <Compound>
CC(=O)C(NC(=O)c1ccc(C#Cc2ccc(CNCc3ccccc3)cc2)cc1)C(=O)NO (stereo not drawn)

>  <MIC PM 10775>
0.8 µg/mL

$$$$
